FYI, the data here is from the supplement of paper PMC10567573.

B1: MIA2 (parent)
chain: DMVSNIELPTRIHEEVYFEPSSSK

Variants of: B1
Assay: protein stability index of a GFP-peptide fusion (GPS, HEK-293T) (PSI 1-6); higher = more stable;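 further: lentivirally expressed fusions sorted by FACS into six bins by GFP to DsRed ratio, PSI derived from sequencing read proportions per bin multiplied by bin number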
Details: c terminus: a fixed tail appended
parameter: protein stability index

Specify measured protein stability index for "S23L" . 3.49

Give the reported protein stability index for this variant. "E7S" 3.02

Identify protein stability index associated with the variant "L8Q" 4.53

Answer with reported protein stability index of "E7Q" 2.9

Provide one value: measured protein stability index of "I12W" 3.59

Give protein stability index for "H13V" 3.62

Give reported protein stability index value for "R11K" 3.77

Note protein stability index for the variant shown: "S23D" 4.84

Return reported protein stability index. Input variant: "S4P" 4.34

Determine from records and report protein stability index for "H13Y" 3.57

Please report protein stability index for the following variant: "L8K" 3.83
